For each record, write down the corresponding viability, T/C.
- Test system: 435261-313-R-J1-PDC complex spheroid viability
- test protocol: Anticancer human tumor 435261-313-R-J1-PDC patient-derived colon adenocarcinoma cell line growth inhibition [GQUAD]
- experimental context: second compound 0.316 µM; first compound 0.00999 µM; stronger effect = lower value
Numbers only, in %.

Example molecules with recorded viability, T/C:
CC[C@@]1(O)C(=O)OCc2c1cc1n(c2=O)Cc2cc3c(CN(C)C)c(O)ccc3nc2-1 + CN(C)c1ccc(Nc2c3ccc(NC(=O)CCN4CCCC4)cc3nc3cc(NC(=O)CCN4CCCC4)ccc23)cc1 = 87.5
CC[C@@]1(O)C(=O)OCc2c1cc1n(c2=O)Cc2cc3c(CN(C)C)c(O)ccc3nc2-1 + Cc1[nH]c2ccc(F)cc2c1-c1nc2c3cccnc3c3ncccc3c2[nH]1 = 114
CCc1c2c(nc3ccc(O)cc13)-c1cc3c(c(=O)n1C2)COC(=O)[C@]3(O)CC + Cc1[nH]c2ccc(F)cc2c1-c1nc2c3cccnc3c3ncccc3c2[nH]1 = 53.2
CCc1c2c(nc3ccc(O)cc13)-c1cc3c(c(=O)n1C2)COC(=O)[C@]3(O)CC + Cc1cnc(CNC(=O)c2c(=O)c3ccc(N4CCCN(C)CC4)nc3n3c2sc2ccccc23)cn1 = 51.5

Here's the next entry for you.
Req: # query: viability, T/C of entry CCc1c2c(nc3ccc(O)cc13)-c1cc3c(c(=O)n1C2)COC(=O)[C@]3(O)CC + CN(C)c1ccc(Nc2c3ccc(NC(=O)CCN4CCCC4)cc3nc3cc(NC(=O)CCN4CCCC4)ccc23)cc1
Resp: 66.7

###

- System: 435261-313-R-J1-PDC complex spheroid viability
- test protocol: Anticancer human tumor 435261-313-R-J1-PDC cell line growth inhibition [GQUAD];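 further: spheroids exposed to the agents for seven days before readout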;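 on viability, T/C: percent of vehicle control viability with DMSO wells as 100%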
- experimental context: second compound 0.0316 µM; first compound 0.0316 µM; stronger effect = lower value
Rule: viability, T/C below 90% gives yes (1). Equal to or above 90% gives no (0).

CC[C@@]1(O)C(=O)OCc2c1cc1n(c2=O)Cc2cc3c(CN(C)C)c(O)ccc3nc2-1 + CN(C)c1ccc(Nc2c3ccc(NC(=O)CCN4CCCC4)cc3nc3cc(NC(=O)CCN4CCCC4)ccc23)cc1 = yes (1)
C=CCn1c(=O)c2cnc(Nc3ccc(N4CCN(C)CC4)cc3)nc2n1-c1cccc(C(C)(C)O)n1 + CN(C)c1ccc(Nc2c3ccc(NC(=O)CCN4CCCC4)cc3nc3cc(NC(=O)CCN4CCCC4)ccc23)cc1 = no (0)

Req: Please determine if O=C(c1cc(Cc2n[nH]c(=O)c3ccccc23)ccc1F)N1CCN(C(=O)C2CC2)CC1 + CN(C)c1ccc(Nc2c3ccc(NC(=O)CCN4CCCC4)cc3nc3cc(NC(=O)CCN4CCCC4)ccc23)cc1 is below 90% in terms of viability, T/C.
Resp: no (0)

Req: How about this compound: CC(=O)O[C@H]1C(=O)[C@@]2(C)[C@H]([C@H](OC(=O)c3ccccc3)[C@]3(O)C[C@H](OC(=O)[C@H](O)[C@@H](NC(=O)c4ccccc4)c4ccccc4)C(C)=C1C3(C)C)[C@]1(OC(C)=O)CO[C@@H]1C[C@@H]2O + Cc1cnc(CNC(=O)c2c(=O)c3ccc(N4CCCN(C)CC4)nc3n3c2sc2ccccc23)cn1
Resp: yes (1)

###

Please respond with reported viability, T/C for every item in the list.
- Test system: 435261-313-R-J1-PDC complex spheroid viability
- test protocol: Anticancer human tumor 435261-313-R-J1-PDC cell line growth inhibition [GQUAD];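 further: spheroids exposed to the agents for seven days before readout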;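 on viability, T/C: percent of vehicle control viability with DMSO wells as 100%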
- experimental context: second compound 0.0316 µM; first compound 3.16 µM; stronger effect = lower value
- From the text: DNA G-quadruplex Stabilizer Agents in Combinations in Complex Spheroids A high-throughput screen of multi-cell type tumor spheroids was designed to identify active combinations of DNA G-quadruplex stabilizer agents and targeted small molecules. […] Compounds. […] If the clinical Cmax for an agent had not been determined, the highest concentration tested was 10 microM. […]
Answers are plain numbers, in %.

Sample records with viability, T/C:
CCCS(=O)(=O)Nc1ccc(F)c(C(=O)c2c[nH]c3ncc(-c4ccc(Cl)cc4)cc23)c1F + Cc1[nH]c2ccc(F)cc2c1-c1nc2c3cccnc3c3ncccc3c2[nH]1 = 78.5
COc1cccc2c1C(=O)c1c(O)c3c(c(O)c1C2=O)CC(O)(C(=O)CO)CC3OC1CC(N)C(O)C(C)O1 (centres undefined) + Cc1cnc(CNC(=O)c2c(=O)c3ccc(N4CCCN(C)CC4)nc3n3c2sc2ccccc23)cn1 = 1.47

Hello, I would appreciate it if you could give viability, T/C for each entry below.
1. COc1ncnc(C2CC2)c1-c1ncc2cnn(Cc3ccc(-c4nc(C(F)(F)F)cn4C(C)C)cc3)c2n1 + Cc1cnc(CNC(=O)c2c(=O)c3ccc(N4CCCN(C)CC4)nc3n3c2sc2ccccc23)cn1
2. CC(=O)O[C@H]1C(=O)[C@@]2(C)[C@H]([C@H](OC(=O)c3ccccc3)[C@]3(O)C[C@H](OC(=O)[C@H](O)[C@@H](NC(=O)c4ccccc4)c4ccccc4)C(C)=C1C3(C)C)[C@]1(OC(C)=O)CO[C@@H]1C[C@@H]2O + CN(C)c1ccc(Nc2c3ccc(NC(=O)CCN4CCCC4)cc3nc3cc(NC(=O)CCN4CCCC4)ccc23)cc1

Resp:
65.9
69.1

###

- System: 435261-313-R-J1-PDC complex spheroid viability
- test protocol: Anticancer human tumor 435261-313-R-J1-PDC cell line growth inhibition [GQUAD];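 further: spheroids exposed to the agents for seven days before readout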
- experimental context: curve of first compound; second compound 0.0316 µM
quantity: IC50 (µM)
Answers are plain numbers, in µM.

Req: // query IC50 value for entry CC(=O)O[C@H]1C(=O)[C@@]2(C)[C@H]([C@H](OC(=O)c3ccccc3)[C@]3(O)C[C@H](OC(=O)[C@H](O)[C@@H](NC(=O)c4ccccc4)c4ccccc4)C(C)=C1C3(C)C)[C@]1(OC(C)=O)CO[C@@H]1C[C@@H]2O + Cc1cnc(CNC(=O)c2c(=O)c3ccc(N4CCCN(C)CC4)nc3n3c2sc2ccccc23)cn1
Resp: 0.825

###

- System: 435261-313-R-J1-PDC complex spheroid viability
- test protocol: Anticancer human tumor 435261-313-R-J1-PDC cell line growth inhibition [GQUAD];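 further: spheroids exposed to the agents for seven days before readout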;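 on viability, T/C: percent of vehicle control viability with DMSO wells as 100%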
- experimental context: second compound 10 µM; first compound 0.316 µM; stronger effect = lower value
quantity: viability, T/C (%)
Give bare numbers, in %.

Record excerpt, results attached:
Nc1ccn(C2OC(CO)C(O)C2(F)F)c(=O)n1 (stereo not drawn) + Cc1[nH]c2ccc(F)cc2c1-c1nc2c3cccnc3c3ncccc3c2[nH]1 = 18
Cc1cccc(N(C)C(=O)C2C(O)CCN2c2nc(C)cc(C(F)(F)F)c2C#N)c1 (stereo not drawn) + Cc1cnc(CNC(=O)c2c(=O)c3ccc(N4CCCN(C)CC4)nc3n3c2sc2ccccc23)cn1 = 6.24

Continue with the next compound.
Req: Entry under review: CC[C@@]1(O)C(=O)OCc2c1cc1n(c2=O)Cc2cc3c(CN(C)C)c(O)ccc3nc2-1 + CN(C)c1ccc(Nc2c3ccc(NC(=O)CCN4CCCC4)cc3nc3cc(NC(=O)CCN4CCCC4)ccc23)cc1 . Reported viability, T/C?
Resp: 22

###

- Tested on: 435261-313-R-J1-PDC complex spheroid viability
- test protocol: Anticancer human tumor 435261-313-R-J1-PDC cell line growth inhibition [GQUAD];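 further: spheroids exposed to the agents for seven days before readout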;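 on viability, T/C: percent of vehicle control viability with DMSO wells as 100%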
- experimental context: second compound 0.1 µM; first compound 0.1 µM; stronger effect = lower value
Can you tell me viability, T/C for the items I'm about to list?
Numbers only, in %.

Example results:
COc1cc(C2c3cc4c(cc3C(OC3OC5COC(C)OC5C(O)C3O)C3COC(=O)C23)OCO4)cc(OC)c1O (centres undefined) + Cc1cnc(CNC(=O)c2c(=O)c3ccc(N4CCCN(C)CC4)nc3n3c2sc2ccccc23)cn1 = 63.6
COc1ccc([C@@H](O)c2cc(-c3ncnc4cc(N5CCOCC5)ccc34)c(F)cc2Cl)nn1 + CN(C)c1ccc(Nc2c3ccc(NC(=O)CCN4CCCC4)cc3nc3cc(NC(=O)CCN4CCCC4)ccc23)cc1 = 100
C#Cc1c(F)ccc2cc(O)cc(-c3ncc4c(N5CC6CCC(C5)N6)nc(OCC56CCCN5CC(F)C6)nc4c3F)c12 (centres undefined) + CN(C)c1ccc(Nc2c3ccc(NC(=O)CCN4CCCC4)cc3nc3cc(NC(=O)CCN4CCCC4)ccc23)cc1 = 110
CC(=O)O[C@H]1C(=O)[C@@]2(C)[C@H]([C@H](OC(=O)c3ccccc3)[C@]3(O)C[C@H](OC(=O)[C@H](O)[C@@H](NC(=O)c4ccccc4)c4ccccc4)C(C)=C1C3(C)C)[C@]1(OC(C)=O)CO[C@@H]1C[C@@H]2O + Cc1[nH]c2ccc(F)cc2c1-c1nc2c3cccnc3c3ncccc3c2[nH]1 = 78.5
CC(=O)O[C@H]1C(=O)[C@@]2(C)[C@H]([C@H](OC(=O)c3ccccc3)[C@]3(O)C[C@H](OC(=O)[C@H](O)[C@@H](NC(=O)c4ccccc4)c4ccccc4)C(C)=C1C3(C)C)[C@]1(OC(C)=O)CO[C@@H]1C[C@@H]2O + CN(C)c1ccc(Nc2c3ccc(NC(=O)CCN4CCCC4)cc3nc3cc(NC(=O)CCN4CCCC4)ccc23)cc1 = 72.5
O=C(c1cc(Cc2n[nH]c(=O)c3ccccc23)ccc1F)N1CCN(C(=O)C2CC2)CC1 + Cc1cnc(CNC(=O)c2c(=O)c3ccc(N4CCCN(C)CC4)nc3n3c2sc2ccccc23)cn1 = 65.1
CC1COCCN1c1cc(C2(O)CC3CCC(C2)O3)c2cnn(-c3ccn[nH]3)c2n1 (centres undefined) + Cc1cnc(CNC(=O)c2c(=O)c3ccc(N4CCCN(C)CC4)nc3n3c2sc2ccccc23)cn1 = 57.9
CC1COCCN1c1cc(C2(S(C)(=N)=O)CC2)nc(-c2ccnc3[nH]ccc23)n1 (centres undefined) + CN(C)c1ccc(Nc2c3ccc(NC(=O)CCN4CCCC4)cc3nc3cc(NC(=O)CCN4CCCC4)ccc23)cc1 = 96.2

Req: Name the recorded viability, T/C for CC1COCCN1c1cc(-c2ccnn2C)c2ccnc(-c3ccn[nH]3)c2n1 (centres undefined) + CN(C)c1ccc(Nc2c3ccc(NC(=O)CCN4CCCC4)cc3nc3cc(NC(=O)CCN4CCCC4)ccc23)cc1 .
Resp: 85.9
